- SETUP CONDITIONS: rat, in vivo, po, 50 mg/kg
Classification field: enter Satisfied for AUC Mean ± SD values not below 500, Not satisfied for values below it.

### Prompt Check this compound for AUC Mean ± SD at or above 500: "CC(C)=CCc1cc(/C=C/C(=O)O)cc2c1OC(C)(C)C=C2"
### Response Satisfied

* * *

- SETUP CONDITIONS: rat, in vivo, po, 50 mg/kg
# Cmax Mean ± SD annotations
No unit in the answer, please; the number alone is enough.

- COMPOUND: "CC(C)=CCc1cc(/C=C/C(=O)O)cc2c1OC(C)(C)C=C2 [Culifolin]"
  Cmax Mean ± SD: 68.98

### Prompt Would you kindly share the measured Cmax Mean ± SD for CC(C)=CCc1cc(/C=C/C(=O)O)cc(CC=C(C)C)c1O [Artepillin C] ?
### Response 77.7

### Prompt Would you kindly share the measured Cmax Mean ± SD for CC(C)=CCc1cc(/C=C/C(=O)O)cc(O)c1O [3,4-dihydroxy-5-prenyl-(E)-cinnamic acid] ?
### Response 7.5

### Prompt Would you kindly share the measured Cmax Mean ± SD for "CC1(C)C=Cc2cc(/C=C/C(=O)O)ccc2O1" ?
### Response 18.48

### Prompt Would you kindly share the measured Cmax Mean ± SD for CC(C)=CCc1cc(/C=C/C(=O)O)ccc1O [Drupanin] ?
### Response 93.12

### Prompt Would you kindly share the measured Cmax Mean ± SD for CC(C)=CCc1cc(/C=C/C(=O)O)cc(C/C=C(\C)CO)c1O [Capillartemisin A] ?
### Response 10.39

### Prompt Would you kindly share the measured Cmax Mean ± SD for O=C(O)/C=C/c1ccc(O)cc1 [p-Coumaric acid] ?
### Response 343.72

* * *

- SETUP CONDITIONS: rat, in vivo
- Procedure: The following administration liquids were prepared. 10% propylene glycol: a propylene glycol liquid having a concentration of 10% was prepared by diluting propylene glycol with distilled water. […] The concentrations of p-coumaric acid, artepillin C, drupanin, culifolin, capillartemisin A, 3,4-dihydroxy-5-prenyl-(E)-cinnamic acid, and 2,2-dimethylchromene-6-(E)-propenoic acid, kaempferide, 6-methoxy kaempferide, and dihydro kaempferide in the resulting plasma were quantified by LCMS. […]
# Cmax Ratio annotations
No unit in the answer, please; the number alone is enough.

# annotated cases, reported Cmax Ratio shown
- MOLECULE: "CC1(C)C=Cc2cc(/C=C/C(=O)O)ccc2O1"
  Cmax Ratio: 1.56
- MOLECULE: "CC(C)=CCc1cc(/C=C/C(=O)O)cc2c1OC(C)(C)C=C2 [Culifolin]"
  Cmax Ratio: 1.34
- MOLECULE: "CC(C)=CCc1cc(/C=C/C(=O)O)cc(CC=C(C)C)c1O [Artepillin C]"
  Cmax Ratio: 1.7
- MOLECULE: "CC(C)=CCc1cc(/C=C/C(=O)O)cc(C/C=C(\\C)CO)c1O [Capillartemisin A]"
  Cmax Ratio: 1.91

### Prompt Would you kindly share the measured Cmax Ratio for CC(C)=CCc1cc(/C=C/C(=O)O)ccc1O [Drupanin] ?
### Response 1.98

* * *

- SETUP CONDITIONS: rat, in vivo
# AUC Ratio annotations

- COMPOUND: "CC(C)=CCc1cc(/C=C/C(=O)O)ccc1O [Drupanin]"
  OBSERVED: 1.41
- COMPOUND: "CC(C)=CCc1cc(/C=C/C(=O)O)cc(C/C=C(\\C)CO)c1O [Capillartemisin A]"
  OBSERVED: 1.83
- COMPOUND: "CC(C)=CCc1cc(/C=C/C(=O)O)cc(CC=C(C)C)c1O [Artepillin C]"
  OBSERVED: 1.39

### Prompt Would you kindly share the measured AUC Ratio for CC(C)=CCc1cc(/C=C/C(=O)O)cc2c1OC(C)(C)C=C2 [Culifolin] ?
### Response 1.26

### Prompt Would you kindly share the measured AUC Ratio for "CC1(C)C=Cc2cc(/C=C/C(=O)O)ccc2O1" ?
### Response 1.27

* * *

# AUC Mean ± SD annotations
- SETUP CONDITIONS: rat, in vivo, po, 50 mg/kg
No unit in the answer, please; the number alone is enough.

# annotated cases, reported AUC Mean ± SD shown
- COMPOUND: "CC(C)=CCc1cc(/C=C/C(=O)O)cc(CC=C(C)C)c1O [Artepillin C]"
  AUC Mean ± SD: 811.33
- COMPOUND: "O=C(O)/C=C/c1ccc(O)cc1"
  AUC Mean ± SD: 983.44
- COMPOUND: "CC(C)=CCc1cc(/C=C/C(=O)O)cc(C/C=C(\\C)CO)c1O"
  AUC Mean ± SD: 109.74
- COMPOUND: "CC(C)=CCc1cc(/C=C/C(=O)O)ccc1O"
  AUC Mean ± SD: 486.19
- COMPOUND: "CC1(C)C=Cc2cc(/C=C/C(=O)O)ccc2O1"
  AUC Mean ± SD: 84.5

### Prompt Would you kindly share the measured AUC Mean ± SD for CC(C)=CCc1cc(/C=C/C(=O)O)cc(O)c1O [3,4-dihydroxy-5-prenyl-(E)-cinnamic acid] ?
### Response 51.02
